src = patent US12227500B2

assay_system: HGK/MAP4K4 (Homo sapiens, UniProt O95819)
Sequence (O95819 whole entry): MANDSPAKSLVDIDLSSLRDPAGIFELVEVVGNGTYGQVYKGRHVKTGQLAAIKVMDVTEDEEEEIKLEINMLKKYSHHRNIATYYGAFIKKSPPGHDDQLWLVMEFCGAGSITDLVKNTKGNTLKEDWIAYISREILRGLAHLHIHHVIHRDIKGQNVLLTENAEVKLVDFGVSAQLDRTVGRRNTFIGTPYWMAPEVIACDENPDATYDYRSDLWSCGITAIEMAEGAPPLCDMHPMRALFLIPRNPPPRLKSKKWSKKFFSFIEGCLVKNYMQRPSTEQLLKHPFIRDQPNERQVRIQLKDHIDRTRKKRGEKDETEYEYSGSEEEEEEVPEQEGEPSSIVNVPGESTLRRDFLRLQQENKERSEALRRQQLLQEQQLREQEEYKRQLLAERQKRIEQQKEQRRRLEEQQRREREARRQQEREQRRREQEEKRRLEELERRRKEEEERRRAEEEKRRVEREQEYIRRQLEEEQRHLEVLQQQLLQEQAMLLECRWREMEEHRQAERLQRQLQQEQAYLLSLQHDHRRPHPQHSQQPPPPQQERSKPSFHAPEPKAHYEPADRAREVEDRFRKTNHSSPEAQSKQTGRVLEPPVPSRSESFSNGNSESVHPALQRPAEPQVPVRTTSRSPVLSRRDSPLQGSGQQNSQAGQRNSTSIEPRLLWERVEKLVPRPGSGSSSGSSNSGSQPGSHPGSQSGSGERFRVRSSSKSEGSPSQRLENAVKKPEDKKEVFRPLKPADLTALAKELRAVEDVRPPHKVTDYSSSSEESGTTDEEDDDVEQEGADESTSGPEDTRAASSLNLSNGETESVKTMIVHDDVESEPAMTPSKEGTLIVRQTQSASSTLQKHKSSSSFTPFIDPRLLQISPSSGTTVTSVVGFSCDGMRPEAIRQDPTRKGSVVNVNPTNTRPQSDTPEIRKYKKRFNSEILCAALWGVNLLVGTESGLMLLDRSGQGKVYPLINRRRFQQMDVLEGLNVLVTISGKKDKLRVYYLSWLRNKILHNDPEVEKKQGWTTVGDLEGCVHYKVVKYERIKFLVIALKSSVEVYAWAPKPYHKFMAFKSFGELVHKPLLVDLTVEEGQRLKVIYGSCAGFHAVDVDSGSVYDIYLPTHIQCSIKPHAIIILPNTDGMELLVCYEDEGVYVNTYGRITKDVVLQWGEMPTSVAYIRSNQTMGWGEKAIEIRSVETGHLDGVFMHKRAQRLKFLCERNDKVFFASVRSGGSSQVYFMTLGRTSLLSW
assay: Radiolabeled ATP kinase assay (Reaction Biology Corp.), HGK
Assay type: biochemical
Design: purchased Reaction Biology Corp
cond: [Cmpd] 0.025 μM; 10 μM ATP; read-out: % Enzyme Activity (relative to DMSO controls), HGK/MAP4K4, Data 1
Recorded measurements of remaining activity at 0.025 µM, one per entry
// unit must come after the numeric part

Take a look at these entries with their results.
CN1CCN(Cc2ccc(-c3cnc4[nH]cc(-c5ccc6[nH]ncc6c5)c4c3)cc2)CC1; 13.8%
CN1CCN(Cc2ccc(-c3cnc4[nH]cc(-c5ccc(C#N)cc5)c4c3)cc2)CC1; 58.9%
COc1ccc(COc2ccc(-c3c[nH]c4ncc(-c5ccc(CN6CCN(C)CC6)cc5)cc34)cc2)cc1; 21.3%

Now for another entry.
Item CN1CCN(Cc2ccc(-c3cnc4[nH]cc(-c5cnc(N)nc5)c4c3)cc2)CC1 was tested on HGK/MAP4K4 (Homo sapiens, UniProt O95819); the reported remaining activity at 0.025 µM is 48.3%
